// data source = ChEMBL document CHEMBL4265907

target: Receptor-type tyrosine-protein kinase FLT3 (Homo sapiens) (UniProt P36888); assay: Inhibition of human N-terminal GST-tagged FLT3 cytoplasmic domain (564 to 993 residues) expressed in baculovirus expression system at 1 uM using FAM-labeled peptide as substrate after 10 mins by mobility shift assay relative to control
Sequence (P36888 whole entry, the tested form may be a part): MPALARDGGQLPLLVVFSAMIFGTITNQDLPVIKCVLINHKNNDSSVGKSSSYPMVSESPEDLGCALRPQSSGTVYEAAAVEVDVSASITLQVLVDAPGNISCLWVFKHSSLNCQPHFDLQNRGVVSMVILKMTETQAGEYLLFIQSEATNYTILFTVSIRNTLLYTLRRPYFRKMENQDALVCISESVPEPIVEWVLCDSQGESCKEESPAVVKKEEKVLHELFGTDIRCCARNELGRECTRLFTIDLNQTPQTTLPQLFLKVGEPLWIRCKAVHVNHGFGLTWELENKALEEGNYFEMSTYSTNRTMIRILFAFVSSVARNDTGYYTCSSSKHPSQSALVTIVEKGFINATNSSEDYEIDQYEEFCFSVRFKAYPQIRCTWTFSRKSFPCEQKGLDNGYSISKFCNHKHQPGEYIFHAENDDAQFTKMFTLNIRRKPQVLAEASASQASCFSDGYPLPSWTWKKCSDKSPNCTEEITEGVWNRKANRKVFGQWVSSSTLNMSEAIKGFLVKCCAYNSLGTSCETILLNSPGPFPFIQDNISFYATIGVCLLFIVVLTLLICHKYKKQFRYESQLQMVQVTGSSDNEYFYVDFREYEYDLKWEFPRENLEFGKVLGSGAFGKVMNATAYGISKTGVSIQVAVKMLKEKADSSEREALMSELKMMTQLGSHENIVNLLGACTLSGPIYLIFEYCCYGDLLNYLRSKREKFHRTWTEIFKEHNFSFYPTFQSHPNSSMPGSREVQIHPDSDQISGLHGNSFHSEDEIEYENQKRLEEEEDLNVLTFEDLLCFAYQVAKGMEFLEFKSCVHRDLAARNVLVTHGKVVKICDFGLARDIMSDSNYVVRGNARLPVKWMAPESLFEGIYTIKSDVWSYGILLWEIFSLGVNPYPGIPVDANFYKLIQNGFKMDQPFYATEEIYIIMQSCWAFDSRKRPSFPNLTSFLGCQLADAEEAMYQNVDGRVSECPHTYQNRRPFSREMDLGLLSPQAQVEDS
Reported Property: inhibition (%)

# Compound Smiles, Target, Reported Property, Data Value
data = [
    ("COc1cccc(Nc2cc(NC(=O)CCCC(=O)O)ncn2)c1", "Receptor-type tyrosine-protein kinase FLT3 (Homo sapiens) (UniProt P36888)", "inhibition", 10.5),
    ("O=C(O)CCCC(=O)Nc1cc(Nc2cccc(Cl)c2)ncn1", "Receptor-type tyrosine-protein kinase FLT3 (Homo sapiens) (UniProt P36888)", "inhibition", 35.5),
    ("CCOC(=O)c1ccc(Nc2cc(NC(=O)CCCC(=O)O)ncn2)cc1", "Receptor-type tyrosine-protein kinase FLT3 (Homo sapiens) (UniProt P36888)", "inhibition", 11.5),
    ("O=C(O)CCCC(=O)Nc1cc(N2CCOCC2)ncn1", "Receptor-type tyrosine-protein kinase FLT3 (Homo sapiens) (UniProt P36888)", "inhibition", 16.4),
    ("COc1ccc(Nc2cc(NC(=O)c3ccccc3)ncn2)cc1", "Receptor-type tyrosine-protein kinase FLT3 (Homo sapiens) (UniProt P36888)", "inhibition", 6.9),
    ("COc1cccc(Nc2cc(Nc3cc(OC)ccc3OC)ncn2)c1", "Receptor-type tyrosine-protein kinase FLT3 (Homo sapiens) (UniProt P36888)", "inhibition", 59.1),
]

###

assay: AUC (0 to t) in Sprague-Dawley rat at 30 mg/kg, po by UPLC-MS/MS analysis; format: ADME, organism-based; conditions: in vivo

# Compound Smiles, AUC(0-t), ng·h/mL
measured = [
    ("COc1cccc(Nc2cc(Nc3cc(OC)ccc3OC)ncn2)c1", 5700),
]

###

biological target: Fibroblast growth factor receptor 1 (Homo sapiens); assay: Inhibition of N-terminal GST-tagged human FGFR1 cytoplasmic domain (398 to 822 residues) expressed in baculovirus expression system at […] using FAM-labeled peptide as substrate after 10 mins by mobility shift assay relative to control

# Compound Smiles, inhibition
data = [
    ("COc1ccc(Nc2cc(NC(=O)c3ccc(F)cc3)ncn2)cc1", "0.5%"),
    ("COc1ccc(Nc2cc(NC(=O)/C=C/c3ccccc3)ncn2)cc1", "8.7%"),
    ("O=C(O)CCCC(=O)Nc1cc(Nc2ccc(Cl)cc2)ncn1", "-7.2%"),
    ("CCOC(=O)c1ccc(Nc2cc(Nc3cccc(OC)c3)ncn2)cc1", "-9.3%"),
    ("CCOC(=O)CCC(=O)Nc1cc(Nc2cccc(OC)c2)ncn1", "-7.1%"),
    ("CC(C)OC(=O)CCC(=O)Nc1cc(Nc2ccc(C(=O)OC(C)C)cc2)ncn1", "-2.3%"),
    ("CCNc1cc(Nc2cc(OC)ccc2OC)ncn1", "-0.4%"),
    ("CCOc1cccc(Nc2cc(NC(=O)c3ccc(F)cc3)ncn2)c1", "2.2%"),
    ("CCOC(=O)CCCC(=O)Nc1cc(Nc2cc(OC)ccc2OC)ncn1", "-9.3%"),
    ("COc1ccc(OC)c(Nc2cc(Nc3ccc(F)cc3)ncn2)c1", "-3.1%"),
]

###

target: Fibroblast growth factor receptor 1 (Homo sapiens) (UniProt P11362); experiment: Inhibition of N-terminal GST-tagged human FGFR1 cytoplasmic domain (398 to 822 residues) expressed in baculovirus expression system at […] using FAM-labeled peptide as substrate after 10 mins by mobility shift assay relative to control
Below, each entry is listed with its recorded inhibition.

# Compound Smiles, inhibition, %
rows = [
    ("O=C(Nc1cc(Nc2ccc(Cl)cc2)ncn1)c1ccccc1", -1.3),
    ("O=C(O)CCCC(=O)Nc1cc(Nc2ccccc2Br)ncn1", -9.3),
    ("CN1CCN(c2ccc(Nc3cc(NC(=O)/C=C/c4ccc(F)cc4)ncn3)cc2)CC1", -5.4),
    ("COc1cc(Nc2cc(Nc3ccc(Cl)cc3)ncn2)cc(OC)c1OC", 1.2),
    ("CCOc1ccc(Nc2cc(NC(=O)/C=C/c3ccccc3)ncn2)cc1", 1.5),
    ("COc1cccc(Nc2cc(Nc3cccc(Cl)c3)ncn2)c1", -3.8),
    ("CCOC(=O)CCC(=O)Nc1cc(Nc2cccc(Br)c2)ncn1", -7.1),
    ("CCOc1ccc(Nc2cc(NC(=O)/C=C/c3ccc(OC)cc3)ncn2)cc1", 0.7),
    ("CCOC(=O)CCC(=O)Nc1cc(Nc2ccc(Cl)cc2)ncn1", -3.6),
    ("COc1cccc(Nc2cc(NC(=O)/C=C/c3ccccc3)ncn2)c1", -0.4),
    ("Clc1cccc(Nc2cc(Nc3cccc(Br)c3)ncn2)c1", -3.6),
    ("COc1ccc(/C=C/C(=O)Nc2cc(Nc3ccc(Cl)cc3Cl)ncn2)cc1", -4),
    ("O=C(Nc1cc(Nc2ccc(Cl)cc2)ncn1)c1ccc(F)cc1", 16.3),
    ("Clc1ccc(Nc2cc(Nc3cccc(Cl)n3)ncn2)cc1", -5.7),
    ("O=C(O)CCC(=O)Nc1cc(Nc2cccc(Br)c2)ncn1", -5.3),
    ("CCNc1cc(Nc2cccc(Cl)c2)ncn1", -7.7),
    ("COc1ccc(/C=C/C(=O)Nc2cc(Nc3cccc(Br)c3)ncn2)cc1", -5.4),
    ("O=C(Nc1cc(N2CCOCC2)ncn1)c1ccc(F)cc1", 8.8),
    ("O=C(O)CCCC(=O)Nc1cc(Nc2cccc(Cl)c2)ncn1", -8.8),
    ("CCOC(=O)c1c(Nc2cc(NC(=O)CCC(=O)OC(C)C)ncn2)sc2c1CCCC2", -4.1),
    ("Fc1ccc(Nc2cc(Nc3ccc(F)cc3)ncn2)cc1", 0.5),
    ("COc1ccc(Nc2cc(NC(=O)c3ccccc3)ncn2)cc1", 2.8),
    ("COc1ccc(OC)c(Nc2cc(NC(=O)CCCC(=O)O)ncn2)c1", -3.7),
    ("O=C(Nc1cc(Nc2cccc(Cl)c2)ncn1)c1ccccc1", -5.8),
]

###

target: UniProt:P21802; assay: Inhibition of N-terminal GST-tagged human FGFR2 cytoplasmic domain (399 to 821 residues) expressed in baculovirus expression system at 1 uM using FAM-labeled peptide as substrate after 10 mins by mobility shift assay relative to control
Sequence (P21802 22-821 limits assumed): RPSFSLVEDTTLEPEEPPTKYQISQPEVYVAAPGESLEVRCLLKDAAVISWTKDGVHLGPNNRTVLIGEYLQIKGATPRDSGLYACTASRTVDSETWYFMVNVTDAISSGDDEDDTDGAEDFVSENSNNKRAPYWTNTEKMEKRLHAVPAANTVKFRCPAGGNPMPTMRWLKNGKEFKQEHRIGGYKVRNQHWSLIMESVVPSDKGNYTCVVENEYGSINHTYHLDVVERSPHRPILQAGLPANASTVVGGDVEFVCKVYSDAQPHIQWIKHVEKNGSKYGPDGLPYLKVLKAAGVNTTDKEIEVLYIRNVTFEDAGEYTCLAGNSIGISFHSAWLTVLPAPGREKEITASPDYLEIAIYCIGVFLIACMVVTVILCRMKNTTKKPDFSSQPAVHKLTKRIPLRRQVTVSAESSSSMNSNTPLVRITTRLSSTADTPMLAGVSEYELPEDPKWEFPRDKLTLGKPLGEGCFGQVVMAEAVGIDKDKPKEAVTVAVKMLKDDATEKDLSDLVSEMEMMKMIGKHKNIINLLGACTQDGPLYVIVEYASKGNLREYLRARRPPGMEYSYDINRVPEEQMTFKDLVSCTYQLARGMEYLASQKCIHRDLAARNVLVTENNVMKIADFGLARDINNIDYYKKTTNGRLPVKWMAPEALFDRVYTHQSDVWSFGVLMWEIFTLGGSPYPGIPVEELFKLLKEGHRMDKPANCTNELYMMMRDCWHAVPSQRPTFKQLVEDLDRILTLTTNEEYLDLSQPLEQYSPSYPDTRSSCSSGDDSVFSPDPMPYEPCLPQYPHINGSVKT
Reported Property: inhibition (%)

# Compound Smiles, Target, Unit Descriptor, Data Value
rows = [
    ("COc1cccc(Nc2cc(NC(=O)CCCC(=O)O)ncn2)c1", "UniProt:P21802", "%", 21.4),
    ("COc1ccc(Nc2cc(NC(=O)c3ccccc3)ncn2)cc1", "UniProt:P21802", "%", 8.3),
    ("O=C(O)CCCC(=O)Nc1cc(Nc2cccc(Cl)c2)ncn1", "UniProt:P21802", "%", 16.5),
    ("CCOC(=O)c1ccc(Nc2cc(NC(=O)CCCC(=O)O)ncn2)cc1", "UniProt:P21802", "%", 7.2),
    ("O=C(O)CCCC(=O)Nc1cc(N2CCOCC2)ncn1", "UniProt:P21802", "%", 5.9),
    ("COc1cccc(Nc2cc(Nc3cc(OC)ccc3OC)ncn2)c1", "UniProt:P21802", "%", 9.8),
]

###

biological target: Insulin-like growth factor 1 receptor (Homo sapiens); assay: Inhibition of human His-tagged IGF1R cytoplasmic domain (960 to 1397 residues) expressed in baculovirus expression system at 1 uM using FAM-labeled peptide as substrate after 10 mins by mobility shift assay relative to control
I would appreciate it if you labelled entries Fulfilled when inhibition is 9% or higher, otherwise Not fulfilled.

# Compound Smiles, Target, Assigned Class
data = [
    ("O=C(O)CCCC(=O)Nc1cc(Nc2cccc(Cl)c2)ncn1", "Insulin-like growth factor 1 receptor (Homo sapiens)", "Fulfilled"),
    ("O=C(O)CCCC(=O)Nc1cc(N2CCOCC2)ncn1", "Insulin-like growth factor 1 receptor (Homo sapiens)", "Not fulfilled"),
    ("COc1cccc(Nc2cc(NC(=O)CCCC(=O)O)ncn2)c1", "Insulin-like growth factor 1 receptor (Homo sapiens)", "Fulfilled"),
    ("COc1cccc(Nc2cc(Nc3cc(OC)ccc3OC)ncn2)c1", "Insulin-like growth factor 1 receptor (Homo sapiens)", "Not fulfilled"),
    ("COc1ccc(Nc2cc(NC(=O)c3ccccc3)ncn2)cc1", "Insulin-like growth factor 1 receptor (Homo sapiens)", "Not fulfilled"),
]

###

Below, each entry is listed with its recorded inhibition.
target: Vascular endothelial growth factor receptor 2 (Homo sapiens) (UniProt P35968); experiment: Inhibition of N-terminal GST-tagged human KDR cytoplasmic domain (790 to 1356 residues) expressed in baculovirus expression system at […] using FAM-labeled peptide as substrate after 10 mins by mobility shift assay relative to control
Sequence (P35968 whole entry, the tested form may be a part): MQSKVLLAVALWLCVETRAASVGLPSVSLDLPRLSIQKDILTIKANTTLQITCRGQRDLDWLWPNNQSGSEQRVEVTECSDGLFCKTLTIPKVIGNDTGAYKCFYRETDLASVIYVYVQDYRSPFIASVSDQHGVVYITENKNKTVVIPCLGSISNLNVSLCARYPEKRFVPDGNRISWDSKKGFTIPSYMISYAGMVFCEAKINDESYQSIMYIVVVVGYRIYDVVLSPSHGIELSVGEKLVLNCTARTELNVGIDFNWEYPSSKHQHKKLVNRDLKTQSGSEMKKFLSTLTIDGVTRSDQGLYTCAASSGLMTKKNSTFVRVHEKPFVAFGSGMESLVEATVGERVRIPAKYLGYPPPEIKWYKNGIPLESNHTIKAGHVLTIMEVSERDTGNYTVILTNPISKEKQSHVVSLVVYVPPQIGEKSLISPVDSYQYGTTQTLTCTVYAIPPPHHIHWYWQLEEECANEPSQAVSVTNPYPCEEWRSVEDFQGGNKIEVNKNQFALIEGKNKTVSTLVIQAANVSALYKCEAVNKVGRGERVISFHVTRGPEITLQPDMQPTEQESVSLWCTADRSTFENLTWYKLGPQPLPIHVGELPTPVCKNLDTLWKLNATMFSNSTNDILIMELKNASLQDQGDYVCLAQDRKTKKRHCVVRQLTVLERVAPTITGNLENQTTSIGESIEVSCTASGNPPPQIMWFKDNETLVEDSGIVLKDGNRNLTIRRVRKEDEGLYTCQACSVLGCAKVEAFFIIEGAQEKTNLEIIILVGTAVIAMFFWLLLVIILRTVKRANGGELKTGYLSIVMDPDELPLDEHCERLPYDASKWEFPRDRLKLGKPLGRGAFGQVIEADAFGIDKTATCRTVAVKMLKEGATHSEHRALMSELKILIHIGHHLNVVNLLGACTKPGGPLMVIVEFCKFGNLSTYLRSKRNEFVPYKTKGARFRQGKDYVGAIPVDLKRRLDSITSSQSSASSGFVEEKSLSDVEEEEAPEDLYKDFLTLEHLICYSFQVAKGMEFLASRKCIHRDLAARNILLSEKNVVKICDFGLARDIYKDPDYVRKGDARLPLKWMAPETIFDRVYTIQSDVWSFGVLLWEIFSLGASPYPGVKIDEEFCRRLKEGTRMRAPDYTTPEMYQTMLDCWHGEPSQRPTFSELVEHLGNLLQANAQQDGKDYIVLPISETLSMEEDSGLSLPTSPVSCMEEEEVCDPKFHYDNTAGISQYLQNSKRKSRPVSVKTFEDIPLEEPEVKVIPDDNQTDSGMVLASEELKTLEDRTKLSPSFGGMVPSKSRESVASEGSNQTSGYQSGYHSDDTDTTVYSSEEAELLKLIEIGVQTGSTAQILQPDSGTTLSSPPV
Reported Property: inhibition (%)

# Compound Smiles, Data Value
rows = [
    ("COc1ccc(Nc2cc(NC(=O)/C=C/c3ccc(F)cc3Br)ncn2)c([N+](=O)[O-])c1", 11.3),
    ("Fc1ccc(Nc2cc(Nc3ccc(F)cc3)ncn2)cc1", 16.8),
    ("COc1ccc(OC)c(Nc2cc(Nc3cc(OC)ccc3OC)ncn2)c1", 13.6),
    ("O=C(Nc1cc(Nc2cccc(Cl)c2)ncn1)c1ccc(F)cc1", -0.6),
    ("CN1CCN(c2cc(NC(=O)/C=C/c3ccc(F)cc3)ncn2)CC1", 7.7),
    ("COc1ccc(Nc2cc(NC(=O)c3ccccc3)ncn2)cc1", 12.4),
]
